test: AUC(0 to 24 hrs) in human at 50 mg, iv q12h; type: ADME, organism-based; design: dose 50 mg, time < 24 hr, route intravenous; settings: in vivo
Reported metric: AUC (ng·h/mL)
Number only, in ng·h/mL; omit the unit.

Q) Which AUC value is on record for CN(C)c1cc(NC(=O)CNC(C)(C)C)c(O)c2c1C[C@H]1C[C@H]3[C@H](N(C)C)C(O)=C(C(N)=O)C(=O)[C@@]3(O)C(O)=C1C2=O ?
A) 4700

----------
molecular target: UniProtKB Q4U2R8; assay: Inhibition of human OAT1 expressed in HEK293 cells at 25 uM; format: cell-based
Sequence (Q4U2R8 whole entry): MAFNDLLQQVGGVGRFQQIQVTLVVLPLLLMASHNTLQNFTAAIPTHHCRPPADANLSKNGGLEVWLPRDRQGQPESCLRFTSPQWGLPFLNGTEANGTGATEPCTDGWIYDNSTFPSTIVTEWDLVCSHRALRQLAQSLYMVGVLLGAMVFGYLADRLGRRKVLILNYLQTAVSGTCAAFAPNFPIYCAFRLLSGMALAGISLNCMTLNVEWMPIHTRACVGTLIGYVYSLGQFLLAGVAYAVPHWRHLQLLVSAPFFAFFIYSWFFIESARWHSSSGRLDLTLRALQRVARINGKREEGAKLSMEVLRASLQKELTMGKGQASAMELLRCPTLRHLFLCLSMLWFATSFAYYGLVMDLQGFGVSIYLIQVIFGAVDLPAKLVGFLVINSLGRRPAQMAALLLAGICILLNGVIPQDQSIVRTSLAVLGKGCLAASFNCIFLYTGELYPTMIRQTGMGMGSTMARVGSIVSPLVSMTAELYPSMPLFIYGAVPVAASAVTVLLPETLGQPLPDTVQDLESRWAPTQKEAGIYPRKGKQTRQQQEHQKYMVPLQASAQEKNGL
Reported metric: inhibition at 25 µM (%)
# number only, unit % dropped from output

Q) For the molecule shown here, CN(C)c1cc([14CH2]NCC(C)(C)C)c(O)c2c1C[C@H]1C[C@H]3[C@H](N(C)C)C(O)=C(C(N)=O)C(=O)[C@@]3(O)C(O)=C1C2=O , give the reported inhibition at 25 µM.
A) 32.1

----------
tested on: Haemophilus influenzae; assay: Antibacterial activity against Haemophilus influenzae PBS981; assay type: functional
Reported metric: MIC

Guide cases for MIC, answers given:
O=C(O)c1cn(C2CC2)c2cc(N3CCNCC3)c(F)cc2c1=O: < 0.06 µg/mL
CO/N=C(\C(=O)N[C@@H]1C(=O)N2C(C(=O)O)=C(CSc3nc(=O)c(O)nn3C)CS[C@H]12)c1csc(N)n1: < 0.06 µg/mL

Now look at this entry.
Q) # get_value(readout='MIC', item= C[C@H]1COc2c(N3CCN(C)CC3)c(F)cc3c(=O)c(C(=O)O)cn1c23.C[C@H]1COc2c(N3CCN(C)CC3)c(F)cc3c(=O)c(C(=O)O)cn1c23.O )
A) < 0.06 µg/mL
